The values you see were collected from patent US7429679B2.

# ASSAY_EXPLANATION: Evaluation of solubility in distilled water and aqueous solutions having various pH values
# Format: physicochemical
# CONDITION: pH 4.0
Counter-ions that a name gives are not always drawn.
Task for the reader: assign each of the following compounds its reported solubility.
Provide only the numeric value, understood in µg/mL.

Prompt line: Quick one: solubility of CC(C)CC(N(C)C)C1(c2ccc(Cl)cc2)CCC1 (stereo not shown) [Edisylate, sibutramine edisylate] ?
Response line: 9780

Prompt line: Quick one: solubility of CC(C)CC(N(C)C)C1(c2ccc(Cl)cc2)CCC1 (stereo not shown) [Besylate, sibutramine besylate] ?
Response line: 8510

Prompt line: Quick one: solubility of CC(C)CC(N(C)C)C1(c2ccc(Cl)cc2)CCC1 (stereo not shown) [Tosylate, sibutramine tosylate] ?
Response line: 7560

Prompt line: Quick one: solubility of CC(C)CC(N(C)C)C1(c2ccc(Cl)cc2)CCC1.CC1(C)C2CCC1(CS(=O)(=O)O)C(=O)C2 (stereo not shown) [Camsylate, sibutramine camsylate] ?
Response line: 16750

###

Task for the reader: assign each of the following compounds its reported content (HPLC) in light stability test.
# ASSAY_EXPLANATION: Evaluation of light stability: exposure to fluorescence at 25° C., ICH light stability test chamber, content by HPLC
# Type: physicochemical
# Parameters: reference not given here
# CONDITION: Initial
Counter-ions that a name gives are not always drawn.
Reply with just the number.

Prompt line: Quick one: content (HPLC) in light stability test of CC(C)CC(N(C)C)C1(c2ccc(Cl)cc2)CCC1 (centres unmarked) [Tosylate, sibutramine tosylate] ?
Response line: 1.000

Prompt line: Quick one: content (HPLC) in light stability test of CC(C)CC(N(C)C)C1(c2ccc(Cl)cc2)CCC1 (centres unmarked) [Besylate, sibutramine besylate] ?
Response line: 1.000

Prompt line: Quick one: content (HPLC) in light stability test of CC(C)CC(N(C)C)C1(c2ccc(Cl)cc2)CCC1.CC1(C)C2CCC1(CS(=O)(=O)O)C(=O)C2 (centres unmarked) [Camsylate, sibutramine camsylate] ?
Response line: 1.000

Prompt line: Quick one: content (HPLC) in light stability test of CC(C)CC(N(C)C)C1(c2ccc(Cl)cc2)CCC1 (centres unmarked) [HCl monohydrate, sibutramine hydrochloride monohydrate, reference compound] ?
Response line: 1.000

Prompt line: Quick one: content (HPLC) in light stability test of CC(C)CC(N(C)C)C1(c2ccc(Cl)cc2)CCC1 (centres unmarked) [Edisylate, sibutramine edisylate] ?
Response line: 1.000

###

# ASSAY_EXPLANATION: Evaluation of light stability: exposure to fluorescence at 25° C., ICH light stability test chamber, content by HPLC
# Assay type: physicochemical
# Design: reference not given here
# CONDITION: fluorescence, 25° C., 1 wk
Where a name gives a salt, the structure may show the parent alone.
Task for the reader: assign each of the following compounds its reported content (HPLC) in light stability test.
Reply with just the number.

Prompt line: Quick one: content (HPLC) in light stability test of CC(C)CC(N(C)C)C1(c2ccc(Cl)cc2)CCC1 (stereo not shown) [Besylate, sibutramine besylate] ?
Response line: 1.000

Prompt line: Quick one: content (HPLC) in light stability test of CC(C)CC(N(C)C)C1(c2ccc(Cl)cc2)CCC1 (stereo not shown) [Edisylate, sibutramine edisylate] ?
Response line: 1.000

Prompt line: Quick one: content (HPLC) in light stability test of CC(C)CC(N(C)C)C1(c2ccc(Cl)cc2)CCC1 (stereo not shown) [Tosylate, sibutramine tosylate] ?
Response line: 1.000

Prompt line: Quick one: content (HPLC) in light stability test of CC(C)CC(N(C)C)C1(c2ccc(Cl)cc2)CCC1.CC1(C)C2CCC1(CS(=O)(=O)O)C(=O)C2 (stereo not shown) [Camsylate, sibutramine camsylate] ?
Response line: 0.999

###

# ASSAY_EXPLANATION: Evaluation of solubility in distilled water and aqueous solutions having various pH values
# Format: physicochemical
# CONDITION: pH 5.3
Structures can show the parent of a compound that is named as a salt.
OBSERVED_PROPERTY: solubility (µg/mL)
Provide only the numeric value, understood in µg/mL.

Prompt line: Quick one: solubility of CC(C)CC(N(C)C)C1(c2ccc(Cl)cc2)CCC1 (stereo not shown) [Tosylate, sibutramine tosylate] ?
Response line: 5530

Prompt line: Quick one: solubility of CC(C)CC(N(C)C)C1(c2ccc(Cl)cc2)CCC1 (stereo not shown) [Edisylate, sibutramine edisylate] ?
Response line: 5680

Prompt line: Quick one: solubility of CC(C)CC(N(C)C)C1(c2ccc(Cl)cc2)CCC1 (stereo not shown) [Besylate, sibutramine besylate] ?
Response line: 5720

Prompt line: Quick one: solubility of CC(C)CC(N(C)C)C1(c2ccc(Cl)cc2)CCC1.CC1(C)C2CCC1(CS(=O)(=O)O)C(=O)C2 (stereo not shown) [Camsylate, sibutramine camsylate] ?
Response line: 7450

###

# ASSAY_EXPLANATION: Evaluation of stability: stringent 60° C. heat treatment, content by HPLC
# Type: physicochemical
# Parameters: reference not given here
# CONDITION: 60° C., 1 wk
Structures can show the parent of a compound that is named as a salt.
OBSERVED_PROPERTY: content (HPLC) upon 60° C. heat treatment

Prompt line: Quick one: content (HPLC) upon 60° C. heat treatment of CC(C)CC(N(C)C)C1(c2ccc(Cl)cc2)CCC1 (stereo not shown) [Tosylate, sibutramine tosylate] ?
Response line: 0.999

Prompt line: Quick one: content (HPLC) upon 60° C. heat treatment of CC(C)CC(N(C)C)C1(c2ccc(Cl)cc2)CCC1 (stereo not shown) [Besylate, sibutramine besylate] ?
Response line: 1.000

Prompt line: Quick one: content (HPLC) upon 60° C. heat treatment of CC(C)CC(N(C)C)C1(c2ccc(Cl)cc2)CCC1 (stereo not shown) [Edisylate, sibutramine edisylate] ?
Response line: 0.999

Prompt line: Quick one: content (HPLC) upon 60° C. heat treatment of CC(C)CC(N(C)C)C1(c2ccc(Cl)cc2)CCC1.CC1(C)C2CCC1(CS(=O)(=O)O)C(=O)C2 (stereo not shown) [Camsylate, sibutramine camsylate] ?
Response line: 1.000

###

Task for the reader: assign each of the following compounds its reported content (HPLC) in light stability test.
# ASSAY_EXPLANATION: Evaluation of light stability: exposure to fluorescence at 25° C., ICH light stability test chamber, content by HPLC
# Type: physicochemical
# Set-up: reference not given here
# CONDITION: fluorescence, 25° C., 4 wks
Structures can show the parent of a compound that is named as a salt.
Reply with just the number.

Prompt line: Quick one: content (HPLC) in light stability test of CC(C)CC(N(C)C)C1(c2ccc(Cl)cc2)CCC1 (stereo not shown) [Tosylate, sibutramine tosylate] ?
Response line: 0.999

Prompt line: Quick one: content (HPLC) in light stability test of CC(C)CC(N(C)C)C1(c2ccc(Cl)cc2)CCC1 (stereo not shown) [Besylate, sibutramine besylate] ?
Response line: 0.999

Prompt line: Quick one: content (HPLC) in light stability test of CC(C)CC(N(C)C)C1(c2ccc(Cl)cc2)CCC1.CC1(C)C2CCC1(CS(=O)(=O)O)C(=O)C2 (stereo not shown) [Camsylate, sibutramine camsylate] ?
Response line: 0.999

Prompt line: Quick one: content (HPLC) in light stability test of CC(C)CC(N(C)C)C1(c2ccc(Cl)cc2)CCC1 (stereo not shown) [Edisylate, sibutramine edisylate] ?
Response line: 1.000

###

# ASSAY_EXPLANATION: Evaluation of solubility in distilled water and aqueous solutions having various pH values
# Assay type: physicochemical
# CONDITION: pH 1.2
Counter-ions that a name gives are not always drawn.
Task for the reader: assign each of the following compounds its reported solubility.
Provide only the numeric value, understood in mg/mL.

Prompt line: Quick one: solubility of CC(C)CC(N(C)C)C1(c2ccc(Cl)cc2)CCC1 (stereo not shown) [Besylate, sibutramine besylate] ?
Response line: 15.18

Prompt line: Quick one: solubility of CC(C)CC(N(C)C)C1(c2ccc(Cl)cc2)CCC1 (stereo not shown) [Edisylate, sibutramine edisylate] ?
Response line: 10.57

Prompt line: Quick one: solubility of CC(C)CC(N(C)C)C1(c2ccc(Cl)cc2)CCC1.CC1(C)C2CCC1(CS(=O)(=O)O)C(=O)C2 (stereo not shown) [Camsylate, sibutramine camsylate] ?
Response line: 16.18

Prompt line: Quick one: solubility of CC(C)CC(N(C)C)C1(c2ccc(Cl)cc2)CCC1 (stereo not shown) [Tosylate, sibutramine tosylate] ?
Response line: 8.36

###

Task for the reader: assign each of the following molecules its reported content (HPLC) upon 60° C. heat treatment.
# ASSAY_EXPLANATION: Evaluation of stability: stringent 60° C. heat treatment, content by HPLC
# Format: physicochemical
# Parameters: reference not given here
# CONDITION: 60° C., 4 wks
Structures can show the parent of a compound that is named as a salt.
Reply with just the number.

Prompt line: Quick one: content (HPLC) upon 60° C. heat treatment of CC(C)CC(N(C)C)C1(c2ccc(Cl)cc2)CCC1 (stereo not shown) [Tosylate, sibutramine tosylate] ?
Response line: 0.999

Prompt line: Quick one: content (HPLC) upon 60° C. heat treatment of CC(C)CC(N(C)C)C1(c2ccc(Cl)cc2)CCC1 (stereo not shown) [Edisylate, sibutramine edisylate] ?
Response line: 0.999

Prompt line: Quick one: content (HPLC) upon 60° C. heat treatment of CC(C)CC(N(C)C)C1(c2ccc(Cl)cc2)CCC1.CC1(C)C2CCC1(CS(=O)(=O)O)C(=O)C2 (stereo not shown) [Camsylate, sibutramine camsylate] ?
Response line: 0.999

Prompt line: Quick one: content (HPLC) upon 60° C. heat treatment of CC(C)CC(N(C)C)C1(c2ccc(Cl)cc2)CCC1 (stereo not shown) [Besylate, sibutramine besylate] ?
Response line: 1.000
